biological target: PLD1 (Homo sapiens); construct: endogenous in cells; host or cells: HEK 293 (Jump-In) cells with tet-regulated mKate2-Tau; test: PLD1 activity: Proteostat/mKate2 with PLD2 inhibitor ML298; assay type: cell-based; conditions: with ML298, PLD2 inhibitor (355 nM); read-out: Proteostat (nM) using pharmacological inhibitor PLD1
readout: EC50 (nM)
Lab book: enter the figure in nM, no units written.

Sample c1cnc2c(SC3CCCC3)ncnc2c1 [WHYKD36] ; EC50 observed: 394

###

target: PLD1 (Homo sapiens, UniProt Q13393); construct: endogenous in cells; host or cells: HEK 293 (Jump-In) cells with tet-regulated mKate2-Tau; assay: PLD1 activity: Proteostat/mKate2 with PLD2 inhibitor ML298; type: cell-based; conditions: with ML298, PLD2 inhibitor (355 nM); read-out: mKate2 (nM) using pharmacological inhibitor PLD1
Sequence (Q13393 whole entry): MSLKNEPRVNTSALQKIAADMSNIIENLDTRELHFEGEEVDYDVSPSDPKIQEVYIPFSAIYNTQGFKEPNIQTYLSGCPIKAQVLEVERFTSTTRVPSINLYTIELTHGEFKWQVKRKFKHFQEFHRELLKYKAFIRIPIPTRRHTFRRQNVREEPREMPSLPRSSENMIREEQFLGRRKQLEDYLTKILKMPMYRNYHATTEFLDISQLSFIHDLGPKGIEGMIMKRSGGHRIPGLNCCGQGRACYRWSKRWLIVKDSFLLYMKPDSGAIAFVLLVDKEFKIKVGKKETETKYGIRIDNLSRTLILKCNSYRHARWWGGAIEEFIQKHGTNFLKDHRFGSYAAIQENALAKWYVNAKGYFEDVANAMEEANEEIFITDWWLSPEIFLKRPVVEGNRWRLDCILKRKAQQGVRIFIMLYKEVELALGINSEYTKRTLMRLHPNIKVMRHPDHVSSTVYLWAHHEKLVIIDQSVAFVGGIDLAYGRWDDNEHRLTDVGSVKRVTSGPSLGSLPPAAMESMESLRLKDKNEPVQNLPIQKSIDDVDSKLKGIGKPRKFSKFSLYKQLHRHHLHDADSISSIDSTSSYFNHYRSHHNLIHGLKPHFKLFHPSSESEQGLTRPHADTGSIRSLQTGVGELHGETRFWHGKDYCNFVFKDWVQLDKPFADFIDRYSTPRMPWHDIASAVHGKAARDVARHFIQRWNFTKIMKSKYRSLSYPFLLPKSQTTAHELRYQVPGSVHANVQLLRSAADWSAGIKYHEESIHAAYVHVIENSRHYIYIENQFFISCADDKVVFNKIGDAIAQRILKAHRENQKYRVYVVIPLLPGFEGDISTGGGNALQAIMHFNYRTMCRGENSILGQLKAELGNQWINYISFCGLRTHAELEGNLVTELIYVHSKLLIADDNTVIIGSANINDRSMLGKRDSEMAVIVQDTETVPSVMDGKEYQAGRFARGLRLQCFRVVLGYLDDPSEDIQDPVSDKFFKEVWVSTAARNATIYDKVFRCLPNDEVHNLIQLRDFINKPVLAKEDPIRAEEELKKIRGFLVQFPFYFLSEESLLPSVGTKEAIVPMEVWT
readout: EC50 (nM)
Lab book: enter the figure in nM, no units written.

Sample c1cnc2c(SC3CCCC3)ncnc2c1 [WHYKD36] ; EC50 observed: 1330
